Below, each entry is listed alongside its reported Krel.
- target.or.test.system: recombinant human galectin-3 (Homo sapiens, UniProt P17931)
- Construct: made in house; host or cells: Escherichia coli
- Sequence (P17931 whole entry): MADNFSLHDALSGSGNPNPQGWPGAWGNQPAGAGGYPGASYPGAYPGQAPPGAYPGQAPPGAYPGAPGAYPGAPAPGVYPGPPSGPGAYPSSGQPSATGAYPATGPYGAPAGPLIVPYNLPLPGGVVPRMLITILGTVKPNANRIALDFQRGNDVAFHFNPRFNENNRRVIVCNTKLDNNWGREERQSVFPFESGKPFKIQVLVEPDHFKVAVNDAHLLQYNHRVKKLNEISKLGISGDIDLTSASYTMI
- assay.protocol: Inhibition of galectin-3 binding to Galα3Galβ4GlcNAcβ-HRP conjugate (galectin-3 coated microwells)
- cond: ratio of IC50 of reference compound 25 and IC50 of the inhibitor
Respond using a number only.

Take a look at these entries with their results.
Which Krel reading was recorded for the molecule CO[C@@H]1O[C@H](CO)[C@@H](O[C@@H]2O[C@H](CO)[C@H](O)[C@H](O)[C@H]2O)[C@H](O)[C@H]1NC(C)=O [Compound 25, reference compound] ?
1

Which Krel reading was recorded for the molecule CO[C@@H]1O[C@H](CO)[C@@H](O[C@@H]2O[C@H](CO)[C@H](O)[C@H](NC(=O)c3ccccc3)[C@H]2O)[C@H](O)[C@H]1NC(C)=O ?
9

Which Krel reading was recorded for the molecule COc1c(F)c(F)c(C(=O)N[C@H]2[C@@H](O)[C@@H](CO)O[C@@H](O[C@H]3[C@H](O)[C@@H](NC(C)=O)[C@H](OC)O[C@@H]3CO)[C@@H]2O)c(F)c1F ?
41

Next up:
Which Krel reading was recorded for the molecule CO[C@@H]1O[C@H](CO)[C@@H](O[C@@H]2O[C@H](CO)[C@H](O)[C@H](NC(=O)c3c(F)c(F)c(F)c(F)c3C(=O)O)[C@H]2O)[C@H](O)[C@H]1NC(C)=O ?
18

----------
Below, each entry is listed alongside its reported IC50.
- target.or.test.system: recombinant human galectin-3 (Homo sapiens, UniProt P17931)
- assay.protocol: Inhibition of galectin-3 binding to Galα3Galβ4GlcNAcβ-HRP conjugate (galectin-3 coated microwells)
- cond: competitive inhibition of Galα3Galβ4GlcNAcβ trisaccharide:HRP conjugate binding to galectin-3 coated microwells, five-fold serial dilutions

Which IC50 is reported with recombinant human galectin-3 (Homo sapiens, UniProt P17931) for this entry: CO[C@@H]1O[C@H](CO)[C@@H](O[C@@H]2O[C@H](CO)[C@H](O)[C@H](O)[C@H]2O)[C@H](O)[C@H]1NC(C)=O [Compound 25, reference compound] ?
199 µM

Which IC50 is reported with recombinant human galectin-3 (Homo sapiens, UniProt P17931) for this entry: COc1c(F)c(F)c(C(=O)N[C@H]2[C@@H](O)[C@@H](CO)O[C@@H](O[C@H]3[C@H](O)[C@@H](NC(C)=O)[C@H](OC)O[C@@H]3CO)[C@@H]2O)c(F)c1F [Compound 18] ?
4.8 µM

Which IC50 is reported with recombinant human galectin-3 (Homo sapiens, UniProt P17931) for this entry: CO[C@@H]1O[C@H](CO)[C@@H](O[C@@H]2O[C@H](CO)[C@H](O)[C@H](NC(=O)c3c(F)c(F)c(F)c(F)c3C(=O)O)[C@H]2O)[C@H](O)[C@H]1NC(C)=O [Compound 19] ?
11.2 µM

Next up:
Which IC50 is reported with recombinant human galectin-3 (Homo sapiens, UniProt P17931) for this entry: CO[C@@H]1O[C@H](CO)[C@@H](O[C@@H]2O[C@H](CO)[C@H](O)[C@H](NC(=O)c3ccccc3)[C@H]2O)[C@H](O)[C@H]1NC(C)=O [Compound 16] ?
23 µM
